- measured_on: JAK1 (Homo sapiens (Human))
- Sequence (P23458 whole entry): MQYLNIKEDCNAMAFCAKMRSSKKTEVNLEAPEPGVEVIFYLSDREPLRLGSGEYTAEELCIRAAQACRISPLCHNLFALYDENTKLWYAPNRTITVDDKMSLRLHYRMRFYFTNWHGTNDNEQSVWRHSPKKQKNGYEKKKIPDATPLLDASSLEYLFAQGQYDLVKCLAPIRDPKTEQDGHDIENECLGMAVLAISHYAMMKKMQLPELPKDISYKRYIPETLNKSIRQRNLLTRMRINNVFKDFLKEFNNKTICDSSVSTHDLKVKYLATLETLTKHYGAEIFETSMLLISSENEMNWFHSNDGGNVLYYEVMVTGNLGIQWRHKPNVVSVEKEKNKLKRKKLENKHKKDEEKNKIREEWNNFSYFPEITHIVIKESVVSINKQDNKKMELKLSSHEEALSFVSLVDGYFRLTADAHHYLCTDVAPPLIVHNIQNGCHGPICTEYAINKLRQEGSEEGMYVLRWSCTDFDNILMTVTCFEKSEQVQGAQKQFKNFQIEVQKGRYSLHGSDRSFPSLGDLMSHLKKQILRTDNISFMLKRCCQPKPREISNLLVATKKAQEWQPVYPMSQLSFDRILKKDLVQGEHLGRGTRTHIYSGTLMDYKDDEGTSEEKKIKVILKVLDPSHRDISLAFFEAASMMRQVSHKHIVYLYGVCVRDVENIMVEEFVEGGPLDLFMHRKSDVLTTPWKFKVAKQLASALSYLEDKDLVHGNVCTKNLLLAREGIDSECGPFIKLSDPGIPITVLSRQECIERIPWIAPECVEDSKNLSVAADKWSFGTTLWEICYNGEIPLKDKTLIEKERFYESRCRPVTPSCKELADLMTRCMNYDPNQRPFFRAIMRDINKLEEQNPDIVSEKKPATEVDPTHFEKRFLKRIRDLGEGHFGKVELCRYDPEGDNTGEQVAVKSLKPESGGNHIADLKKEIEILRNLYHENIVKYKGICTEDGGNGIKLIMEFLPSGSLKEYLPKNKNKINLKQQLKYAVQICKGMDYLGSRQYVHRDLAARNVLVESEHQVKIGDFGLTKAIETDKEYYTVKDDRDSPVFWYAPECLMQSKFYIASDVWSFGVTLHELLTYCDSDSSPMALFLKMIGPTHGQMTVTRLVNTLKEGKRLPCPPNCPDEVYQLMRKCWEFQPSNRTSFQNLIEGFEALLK
pIC50: −log10 of the molar value.
assay_endpoint: pIC50

For orientation, consider the following solved cases.
C[C@]1(O)CC[C@@H](Nc2c(C(N)=O)cnn3cc(-c4cncnc4)cc23)CC1 : 6.98
CC1(C)[C@H](Nc2c(C(N)=O)cnn3cc(NS(=O)(=O)c4ccc(Cl)cc4)cc23)CC[C@@]1(C)O (racemic) : 6.59
CC1(C)[C@H](Nc2c(C(N)=O)cnn3cc(-c4ccccc4C(N)=O)cc23)CC[C@]1(C)N : 8.57
CC1(C)[C@H](Nc2c(C(N)=O)cnn3cc(N4CCCC4=O)cc23)CC[C@]1(C)N : 7.69
CC1(C)[C@H](Nc2c(C(N)=O)cnn3cc(-c4ccc(F)nc4)cc23)CC[C@]1(C)C(N)=O : 8.66
CC1(C)[C@@H](Nc2c(C(N)=O)cnn3cc(-c4ccc(C#N)cc4)cc23)CC[C@@]1(C)N : 7.90

P: CC(=O)Nc1ccccc1-c1cc2c(N[C@@H]3CC[C@](C)(N)C3(C)C)c(C(N)=O)cnn2c1
Q: CC1(C)[C@H](Nc2c(C(N)=O)cnn3cc(-c4ccc(C(=O)NC5CC5)cc4)cc23)CC[C@]1(C)N
R: CC1(C)[C@H](Nc2c(C(N)=O)cnn3cc(N4CCOCC4=O)cc23)CC[C@]1(C)N
S: Cc1cccc(-c2cc3c(N[C@@H]4CCC[C@]4(C)F)c(C(N)=O)cnn3c2)c1 (racemic)
## Input # sort list by recorded pIC50, greatest to least Would you mind listing the labels in the order requested?
## Output Q, S, P, R
